Data credit: ChEMBL document CHEMBL1136175

test system: Mycobacterium kansasii; assay: Antimycobacterial activity against Mycobacterium kansasii ATCC 12478; type: functional
# maps each entry to its log10 of MIC
TEST_READOUT: log10 of MIC (log10 of the value in µg/mL)

{"COMPOUND_STRUCTURE_STRING": "CO[C@H]1/C=C/O[C@@]2(C)Oc3c(C)c(O)c4c(O)c(c(/C=N/N5CCN(C)CC5)c(O)c4c3C2=O)NC(=O)/C(C)=C\\C=C\\[C@H](C)[C@H](O)[C@@H](C)[C@@H](O)[C@@H](C)[C@H](OC(C)=O)[C@@H]1C", "log10 of MIC": -0.60}
{"COMPOUND_STRUCTURE_STRING": "CCCCCCC(=O)O[C@@H]1[C@H](OC)[C@@H]([C@@H](O[C@H]2OC(C(=O)N[C@H]3CCC[C@@H](C)NC3=O)=C[C@H](O)[C@@H]2O)C(N)=O)O[C@H]1n1ccc(=O)[nH]c1=O", "log10 of MIC": 0.30}
{"COMPOUND_STRUCTURE_STRING": "CCCCCCCCCCCC(=O)O[C@@H]1[C@H](OC)[C@@H]([C@@H](O[C@H]2OC(C(=O)Nc3ccccc3)=C[C@H](O)[C@@H]2O)C(N)=O)O[C@H]1n1ccc(=O)[nH]c1=O", "log10 of MIC": 0.90}
{"COMPOUND_STRUCTURE_STRING": "CCCCCCCCCCCCCCCC(=O)O[C@@H]1[C@H](OC)[C@@H]([C@@H](O[C@H]2OC(C(=O)Nc3ccccc3)=C[C@H](O)[C@@H]2O)C(N)=O)O[C@H]1n1ccc(=O)[nH]c1=O", "log10 of MIC": 1.51}
{"COMPOUND_STRUCTURE_STRING": "CO[C@H]1[C@@H](O)[C@H](n2ccc(=O)[nH]c2=O)O[C@@H]1[C@@H](O[C@H]1OC(C(=O)Nc2ccccc2)=C[C@H](O)[C@@H]1O)C(N)=O", "log10 of MIC": 0.90}
{"COMPOUND_STRUCTURE_STRING": "CCCCCCCCCCCCCCC(=O)O[C@@H]1[C@H](OC)[C@@H]([C@@H](O[C@H]2OC(C(=O)N[C@H]3CCC[C@@H](C)NC3=O)=C[C@H](O)[C@@H]2O)C(N)=O)O[C@H]1n1ccc(=O)[nH]c1=O", "log10 of MIC": 0.60}
{"COMPOUND_STRUCTURE_STRING": "CCCCCCCCCCCCCC(=O)O[C@@H]1[C@H](OC)[C@@H]([C@@H](O[C@H]2OC(C(=O)N[C@H]3CCC[C@@H](C)NC3=O)=C[C@H](O)[C@@H]2O)C(N)=O)O[C@H]1n1ccc(=O)[nH]c1=O", "log10 of MIC": 0.60}
{"COMPOUND_STRUCTURE_STRING": "CCCCC(=O)O[C@@H]1[C@H](OC)[C@@H]([C@@H](O[C@H]2OC(C(=O)N[C@H]3CCC[C@@H](C)NC3=O)=C[C@H](O)[C@@H]2O)C(N)=O)O[C@H]1n1ccc(=O)[nH]c1=O", "log10 of MIC": 1.20}
{"COMPOUND_STRUCTURE_STRING": "CCCCCCCCCC(=O)O[C@@H]1[C@H](OC)[C@@H]([C@@H](O[C@H]2OC(C(=O)N[C@H]3CCCCNC3=O)=C[C@H](O)[C@@H]2O)C(N)=O)O[C@H]1n1ccc(=O)[nH]c1=O", "log10 of MIC": 0.00}
{"COMPOUND_STRUCTURE_STRING": "CCCCCCCCCCCCCCCC(=O)O[C@@H]1[C@H](OC)[C@@H]([C@@H](O[C@H]2OC(C(=O)N[C@H]3CCC[C@@H](C)NC3=O)=C[C@H](O)[C@@H]2O)C(N)=O)O[C@H]1n1ccc(=O)[nH]c1=O", "log10 of MIC": 0.60}
